Hey, just so you know, these numbers are from patent US20220323406A1.

Tested on: ENR+CD organoids
Experiment: Primary screen: ATP (CellTiter-Glo 3D, CTG) cell number/viability, 2.5-D 384-well ENR+CD organoids;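 note: compounds given at plating and again on day 3 over a 6-day differentiation from ENR+CV stem-cell-enriched precursors, ATP measured on day 6, plate median as control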
Conditions: primary screen, dose 2.00 uM
readoutLabel: Dose.FC.CTG (log2 fold change)
In your answer, state the number alone without any accompanying words.

COC(=O)CCSCc1ccc(-c2onc(C)c2NC(=O)OC(C)c2ccccc2Cl)cc1 (stereo not shown) [Ki16198]: −0.033
CCn1c(=O)c2c(nc(/C=C/c3ccc(OC)c(OC)c3)n2C)n(CC)c1=O [Istradefylline]: −0.157
CCOC(=O)CCNc1cc(N2CCc3ccccc3CC2)nc(-c2ccccn2)n1.Cl [GSK J4 HCl]: 0.002

Now for another entry.
Dose.FC.CTG (log2 fold change) in this record for Cc1cc(Nc2ncc(Cl)c(Nc3ccccc3S(=O)(=O)C(C)C)n2)c(OC(C)C)cc1C1CCNCC1 [LDK378] : −0.364
